biological target: ovine COX-1 (Ovis aries, UniProt P05979); construct: purchased Cayman Chemical Company 560101; experiment: COX Inhibitor Screening Assay (Cayman), COX-1; format: biochemical
Sequence (P05979 25-600): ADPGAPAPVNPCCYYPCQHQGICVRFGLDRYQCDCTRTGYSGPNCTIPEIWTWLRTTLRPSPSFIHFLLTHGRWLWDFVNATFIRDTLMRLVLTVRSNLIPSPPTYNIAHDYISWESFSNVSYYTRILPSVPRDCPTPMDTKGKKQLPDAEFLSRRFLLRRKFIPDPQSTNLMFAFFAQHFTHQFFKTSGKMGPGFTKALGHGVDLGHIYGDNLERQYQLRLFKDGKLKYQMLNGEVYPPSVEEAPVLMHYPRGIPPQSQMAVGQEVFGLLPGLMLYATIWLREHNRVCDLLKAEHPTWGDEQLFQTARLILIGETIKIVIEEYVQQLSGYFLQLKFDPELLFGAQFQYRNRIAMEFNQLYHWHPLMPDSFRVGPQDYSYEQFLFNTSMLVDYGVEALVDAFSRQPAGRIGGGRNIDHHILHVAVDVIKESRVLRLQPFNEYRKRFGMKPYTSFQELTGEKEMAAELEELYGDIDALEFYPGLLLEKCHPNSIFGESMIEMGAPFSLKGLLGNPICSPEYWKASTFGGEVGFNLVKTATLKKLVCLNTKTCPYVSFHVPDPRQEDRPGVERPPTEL
parameter_measured: IC50 (µM)
Dear colleague, please return just the value in µM, with no unit written.

structure_string=CCOc1ccc2c(c1)C(C)=CC(C)(C)N2 parameter_measured=IC50 reported_measurement=459

Let us examine a further case.
// IC50 lookup, compound = C=CCc1ccc(O)c(OC)c1 , result: 42
